# assay: Lipid levels (clearance) in liver and spleen 48 hours after administration
# Format: in vivo, rats
# study-conditions: Sprague-Dawley, rat, intravenous; liver, 48 hours after administration; read-out: Lipid in liver
assay-readout: concentration at 48 h
Answer with the value and then the unit.

*Q* // concentration at 48 h lookup, key: CCCCCCCCCCCCN(CCCCCCCCCCCC)CCN(CCCCCCCCCCCC)CCN1CCN(CCN(CCCCCCCCC)CCCCCCCCC)CC1
*A* 32900 ng/g

###

# System: luciferase (Luc) mRNA expression
# assay: Expression of Luc, bioluminescence (total flux) after intravenous administration to mice
# Format: in vivo
# study-conditions: mice i.v. 0.5 mg/kg; 3, 6, 24 hours
assay-readout: Total flux (Luc expression), comparison in words over the time points of the table named

compound	test-value
CCCCC/C=C\C/C=C\CCCCCCCCN(CCCCCCCC/C=C\C/C=C\CCCCC)CCN1CCN(CCCCCCCCCCCC)CC1 [Compound 19-6]	next highest flux
CCCCCCCCCCCCN(CCCCCCCCCCCC)CCN1CCN(Cc2ccc(OC)cc2)CC1 [Compound 19-5]	next highest flux

###

# assay: Lipid levels (clearance) in liver and spleen 48 hours after administration
# Format: in vivo, rats
# study-conditions: rat liver, 48 h
assay-readout: % dose remaining Rat liver (48 h) (%)
Give bare numbers, in %.

Below are worked cases with known answers.
compound	unit-abbreviation	test-value
CCCCCCCCCN(CCCCCCCCC)CCC1CCN(C(=O)CN(CCCCCCCCC)CCN(CCCCCCCCC)CCCCCCCCC)CC1	%	38.45
CCCCCCCCCN(CCCCCCCCC)CCN(CCCCCCCCC)CC(=O)N1CCN(C(=O)CN(CCCCCCCCC)CCCCCCCCC)CC1	%	37.82
CCCCCC=CCC=CCCCCCCCCC(CCCCCCCCC=CCC=CCCCCC)OC(=O)CCCN(C)C (stereo not shown) [MC3, reference compound]	%	43.11

# ---- query compound ----
*Q* Please report the recorded % dose remaining Rat liver (48 h) for CCCCCCCCCN(CCCCCCCCC)CCN(CCCCCCCCC)CC(=O)N1CCN(C(=O)CN(CCCCCCCCC)CCCC(=O)OCCCCC)CC1 .
*A* 8.57

###

# Test system: luciferase (Luc) mRNA expression
# assay: Luc expression (AUC) in CD-1 mice relative to MC3
# Format: in vivo
# study-conditions: Table 7c, AUC relative to MC3
assay-readout: Lipid/MC3 AUC
Numbers only.

# annotated cases, reported Lipid/MC3 AUC shown
compound	test-value
CCCCCCCCCN(CCCCCCCCC)CCN(CCCCCCCCC)CC(=O)N1CCN(C(=O)CN(CCCCCCCCC)CCCCCCC(=O)OCC)CC1	0.07
CCCCCCCCCN(CCCCCCCC(=O)OC)CCC1CCN(C(=O)CN(CCCCCCCCC)CCN(CCCCCCCCC)CCCCCCCCC)CC1	0.85
CCCCCCCCCN(CCCCCCCCC)CCN(CCCCCCCCC)CC(=O)N1CCN(C(=O)CN(CCCCCCCCC)CCCOC(=O)CCCCC)CC1	1.25
CCCCCCCCCN(CCCCCCCCC)CCN(CCCCCCCCC)CC(=O)N1CCN(C(=O)CN(CCCCCCCCC)CCCCCC(=O)OCCC)CC1	0.13

// next entry
*Q* # returns recorded Lipid/MC3 AUC (system: luciferase (Luc) mRNA expression) for CCCCCCCCCN(CCCCCC(=O)OCCC)CCC1CCN(C(=O)CN(CCCCCCCCC)CCN(CCCCCCCCC)CCCCCCCCC)CC1
*A* 0.84

###

Give measured PDI for each item. Keep answers brief.
# assay: Particle size and polydispersity index (Zetasizer Nano ZS)
# Type: physicochemical
# study-conditions: Table 1; DOPE 40:20:38.5:1.5, Luc mRNA
Answers are plain numbers.

compound	PDI
CCCCCCCCCCCCN(CCN(CCCCCCCCC)CCCCCCCCC)CC(=O)N1CCN(C(=O)CN(CCCCCCCCC)CCCCCCCCC)CC1	0.140
CCCCCCCCCCCCN(CCCCCCCCCCCC)CCN(CCCCCCCCC)CC(=O)N1CCN(C(=O)CN(CCCCCCCCC)CCCCCCCCC)CC1	0.160
CCCCCCCCCN(CCCCCCCCC)CCN(CCCCCCCCC)CCN1CCN(CCN(CCCCCCCCC)CCCCCCCCC)CC1	0.120

*Q* Sample CCCCCCCCCCCCN(CCCCCCCCCCCC)CCN1CCN(CCN(CCCCCCCCC)CCN(CCCCCCCCC)CCCCCCCCC)CC1 — what was its PDI?
*A* 0.100

###

Please respond with reported PDI for every item in the list.
# assay: Particle size and polydispersity index (Zetasizer Nano ZS)
# Type: physicochemical
# study-conditions: Table 20-1
One number for each entry.

compound	test-value
CCCCCCCCCCCCN(CCO)CCN(CCCCCC(=O)OCCCCC)CCCCCC(=O)OCCCCC [Compound 20-4]	0.160

Provide reported PDI for each item, in the same order as listed.
1. CCCCCCCCCCCCN(CCCCCCCCCCCC)CCN(CCO)CCCCCC(=O)OCCCCC [Compound 20-3]
2. CCCCCCCCCCCCN(CCO)CCN(CCCCCCCCCCCC)CCCCCC(=O)OCCCCCCC [Compound 20-7]
3. CCCCCCCCCCCCN(CCO)CCN(CCCCCCCC(=O)OCCCCCCCCC)CCCCCCCC(=O)OCCCCCCCCC [Compound 20-10]

*A*
[0.110, 0.170, 0.130]

###

# Tested on: luciferase (Luc) mRNA expression
# assay: Luc expression (AUC) in CD-1 mice relative to MC3
# Assay type: in vivo
# study-conditions: Table 7c, AUC relative to MC3
Can you tell me Lipid/MC3 AUC for the items I'm about to list?
Answers are plain numbers.

compound	measurement-target	test-value
CCCCCCCCCN(CCCCC(=O)OCCCC)CCC1CCN(C(=O)CN(CCCCCCCCC)CCN(CCCCCCCCC)CCCCCCCCC)CC1	luciferase (Luc) mRNA expression	2.00
CCCCCCCCCN(CCCC(=O)OCCCCC)CCN(CCCCCCCCC)CC(=O)N1CCN(C(=O)CN(CCCCCCCCC)CCCC(=O)OCCCCC)CC1	luciferase (Luc) mRNA expression	1.25
CCCCCCCCCN(CCCCCCCCC)CCN(CCCCCCCCC)CC(=O)N1CCN(C(=O)CN(CCCC(=O)OCCCCC)CCCC(=O)OCCCCC)CC1	luciferase (Luc) mRNA expression	0.46

Hi team, please reply with Lipid/MC3 AUC for each item in this list.
1. CCCCCCCCCN(CCCOC(=O)CCCCC)CCC1CCN(C(=O)CN(CCCCCCCCC)CCN(CCCCCCCCC)CCCCCCCCC)CC1
2. CCCCCCCCCN(CCCCCCC(=O)OCC)CCC1CCN(C(=O)CN(CCCCCCCCC)CCN(CCCCCCCCC)CCCCCCCCC)CC1
3. CCCCCCCCCN(CCCCCCCCC)CCN(CCCCCCCCC)CC(=O)N1CCN(C(=O)CN(CCCCCCCCC)CCCCC(=O)OCCCC)CC1

*A*
1. 3.27
2. 0.97
3. 0.14

###

# assay: Lipid clearance: % dose remaining in mice (liver) 6 h and 24 h after administration of nanoparticle compositions
# Type: in vivo, CD-1 mice
# study-conditions: Table 7c, 24 hr; species not given
assay-readout: % Dose Remaining 24 hr (%)
Give bare numbers, in %.

compound	assay-readout	test-value
CCCCCCCCCN(CCCCCCC(=O)OCC)CCC1CCN(C(=O)CN(CCCCCCCCC)CCN(CCCCCCCCC)CCCCCCCCC)CC1	% Dose Remaining 24 hr	0.61
CCCCCCCCCN(CCCCCCCCC)CCN(CCCCCCCCC)CC(=O)N1CCN(C(=O)CN(CCCCCCCCC)CCCOC(=O)CCCCC)CC1	% Dose Remaining 24 hr	0.16
CCCCCCCCCN(CCCOC(=O)CCCCC)CCC1CCN(C(=O)CN(CCCCCCCCC)CCN(CCCCCCCCC)CCCCCCCCC)CC1	% Dose Remaining 24 hr	0.13

Respectfully, I request % Dose Remaining 24 hr for each entry included below.
1. CCCCCCCCCN(CCCCCCCCC)CCN(CCCCCCCCC)CC(=O)N1CCN(C(=O)CN(CCCCCCCCC)CCCCCCC(=O)OCC)CC1
2. CCCCCCCCCN(CCCCCCCC(=O)OC)CCC1CCN(C(=O)CN(CCCCCCCCC)CCN(CCCCCCCCC)CCCCCCCCC)CC1
3. CCCCCCCCCN(CCCCCCCCC)CCN(CCCCCCCCC)CC(=O)N1CCN(C(=O)CN(CCCC(=O)OCCCCC)CCCC(=O)OCCCCC)CC1
4. CCCCCCCCCN(CCCCCCCCC)CCN(CCCCCCCCC)CC(=O)N1CCN(C(=O)CN(CCCCCCCCC)CCCCC(=O)OCCCC)CC1

*A*
1: 0.77; 2: 0.24; 3: 6.40; 4: 1.60

###

# assay: Particle size and polydispersity index (Zetasizer Nano ZS)
# Type: physicochemical
# study-conditions: Table 1; lipid:DOPE:Chol:PEG-DMG 40:20:38.5:1.5, Luc mRNA; MC3 standard formulation
What Size (nm) was measured for each of the following?
One number for each entry, in nm.

Example results:
compound	unit-abbreviation	Size (nm)
CCCCCCCCCCCCN(CCCCCCCCCCCC)CC(=O)N1CCN(C(=O)CN(CCCCCCCCCCCC)CCN(CCCCCCCCC)CCCCCCCCC)CC1	nm	78.0
CCCCCCCCCCCCN(CCCCCCCCCCCC)CCN(CCCCCCCCCCCC)CC(=O)N1CC2CC1CN2C(=O)CN(CCCCCCCCC)CCCCCCCCC (stereo not shown)	nm	99.0
CCCCCCCCCCCCCCN(CCCCCCCCCCCCCC)CCN(CCCCCCCCCCCCCC)CCN1CCN(CCN(CCCCCCCCC)CCCCCCCCC)CC1	nm	95.0

*Q* Field request: Size (nm) | item: CCCCC/C=C\CCCCCN(CCCCC/C=C\CCCCC)CCN1CCN(CCN(CCCCCCCCCCCC)CCN(CCCCCCCCCCCC)CCCCCCCCCCCC)CC1
*A* 90.0
